Experiment: Cytotoxicity against human TZM-bl cells assessed as reduction in cell viability incubated for 48 hrs by MTT assay
Format: cell-based
Classify: class 1 when CC50 at 48 h is strictly less than 300 µM; class 0 when CC50 at 48 h is not.

Field: example entries. Status: answers known.
{"smilesInput": "Cc1cc2c(cnn2-c2ccc(C(C)(C)C)cc2)c(=O)[nH]1", "assignedClass": "class 1"}
{"smilesInput": "Cc1cc2c(cnn2-c2ccc(F)c(F)c2)c(=O)[nH]1", "assignedClass": "class 1"}
{"smilesInput": "Cc1cc2c(cnn2-c2ccccc2)c(=O)[nH]1", "assignedClass": "class 0"}
{"smilesInput": "Cc1cc2c(cnn2-c2ccc(Cl)cc2)c(=O)[nH]1", "assignedClass": "class 1"}
{"smilesInput": "Cc1cc2c(cnn2-c2ccc(C)c(C)c2)c(=O)[nH]1", "assignedClass": "class 1"}

Next:
Query: Field: below-cutoff. Rule: recorded CC50 at 48 h strictly less than 300 µM. Subject: Cc1cc2c(cnn2-c2cccc(F)c2)c(=O)[nH]1
Response: class 1
